target: cytoplasmic dynein 1 (Sus scrofa); experiment: microtubule-stimulated ATPase assay
Measured Endpoint: IC50

Req: Request - read-out IC50 | tested on cytoplasmic dynein 1 (Sus scrofa) | molecule `N#CC(=C(O)c1ccc(Cl)cc1Cl)c1nc2ccccc2c(=O)[nH]1`
Resp: ~84 µM
